B1: TAF7L (parent)
chain: PDVENEVKRLLRSDAEAVSTRWEV

# Variants of: B1
# experimental.protocol: protein stability index of a GFP-peptide fusion (GPS, HEK-293T) (PSI 1-6); higher = more stable;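 note: lentivirally expressed fusions sorted by FACS into six bins by GFP to DsRed ratio, PSI derived from sequencing read proportions per bin multiplied by bin number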
# applied.conditions: c terminus: a fixed tail appended
protein stability index of 4 or higher: 1 (yes). Under 4: 0 (no).

As a guide, the following entries are already answered.
seq.string	label.class
PFVENEVKRLLRSDAEAVSTRWEV [D2F]	0 (no)
PDVENEVKRLLRSDAEAVFTRWEV [S19F]	0 (no)

Is protein stability index for PDVENEVKRLLRSDAEAVSTSWEV [R21S] at or above 4?
0 (no)

Could you do the same for PDVENEVKRLLRSDAEAVSTREEV [W22E] , please?
1 (yes)

Same read-out for PDVENKVKRLLRSDAEAVSTRWEV [E6K] ?
0 (no)

Now this one: PDVEPEVKRLLRSDAEAVSTRWEV [N5P]
0 (no)

Follow-up item: PDVENEYKRLLRSDAEAVSTRWEV [V7Y]
0 (no)

Next up: PDVENEVKRLLRSDATAVSTRWEV [E16T]
0 (no)

Similarly, PDVENEVKRFLRSDAEAVSTRWEV [L10F] ?
0 (no)

And the next one, PDKENEVKRLLRSDAEAVSTRWEV [V3K] ?
1 (yes)

And PDVENEVKRLLASDAEAVSTRWEV [R12A] ?
0 (no)

Please answer likewise for PDVENEVFRLLRSDAEAVSTRWEV [K8F]
0 (no)

Try this variant next: PDPENEVKRLLRSDAEAVSTRWEV [V3P]
1 (yes)

Same read-out for PDVENEVKRLLRSYAEAVSTRWEV [D14Y] ?
0 (no)

How about PDVENEVKRLLRSDAEAVSQRWEV [T20Q] ?
0 (no)

Subsequent entry: PDVENENKRLLRSDAEAVSTRWEV [V7N]
0 (no)

Can you check PDVENEVKRTLRSDAEAVSTRWEV [L10T] next?
1 (yes)
